system: Kluyveromyces marxianus; test: In vitro evaluation of minimum inhibitory concentration against Candida pseudotropicalis 13; type: functional; conditions: Kluyveromyces marxianus; read-out: MIC
Measured MIC by item
measurement.label: MIC (mg/L)

INSERT INTO assay_data (molecule, uom, meas_value) VALUES
  ('C[C@H]1N(C(=O)c2ccc(OC(F)(F)F)cc2)CC(=O)O[C@@]1(Cn1cncn1)c1ccc(F)cc1F (racemic)', 'mg/L', 40),
  ('C[C@H]1N(C(=O)c2ccc(C(F)(F)F)cc2)CC(=O)O[C@@]1(Cn1cncn1)c1ccc(C(F)(F)F)cc1 (racemic)', 'mg/L', 80),
  ('C[C@H]1N(C(=O)c2ccc(C(F)(F)F)cc2)CC(=O)O[C@@]1(Cn1cncn1)c1ccc(F)cc1F (racemic)', 'mg/L', 80),
  ('C[C@H]1N(C(=O)c2ccc(OCC(F)(F)F)cc2)CC(=O)O[C@@]1(Cn1cncn1)c1ccc(F)cc1F (racemic)', 'mg/L', 40);
